Measured pIC50 by item
# Tested on: HIV-1 mutant 181C
# protocolDetails: MT-4 cell-based antiviral assay, SDM mutant
# assayConditions: Human immunodeficiency virus 1, MT4
pIC50: −log10 of the molar value.

[
  {
    "smilesString": "Cc1cc(/C=C/C#N)cc(C)c1Nc1ccnc(Nc2ccc(C#N)cc2)n1",
    "reportedRelation": "=",
    "pIC50": 8.89
  },
  {
    "smilesString": "O=C1Nc2ccc(Cl)cc2[C@@](C#CC2CC2)(C(F)(F)F)O1",
    "reportedRelation": "=",
    "pIC50": 8.70
  },
  {
    "smilesString": "Cc1ccnc2c1NC(=O)c1cccnc1N2C1CC1",
    "reportedRelation": "≤",
    "pIC50": 5.00
  }
]

---

# Test system: HIV-1 mutant 190S
# protocolDetails: MT-4 cell-based antiviral assay, SDM mutant
# assayConditions: Human immunodeficiency virus 1, MT4

[
  {
    "molecule": "Cc1cc(/C=C/C#N)cc(C)c1Nc1ccnc(Nc2ccc(C#N)cc2)n1 [E-TMC278]",
    "IC50 (nM)": 0.1
  },
  {
    "molecule": "O=C1Nc2ccc(Cl)cc2[C@@](C#CC2CC2)(C(F)(F)F)O1 [EFV, efavirenz]",
    "IC50 (nM)": 275
  },
  {
    "molecule": "Cc1ccnc2c1NC(=O)c1cccnc1N2C1CC1 [NVP]",
    "IC50 (nM)": 10000
  }
]

---

# Tested on: HIV-1 double mutant 103N + 181C
# protocolDetails: MT-4 cell-based antiviral assay, SDM mutant
# assayConditions: Human immunodeficiency virus 1, MT4
# Experimental: Compound E-TMC278 was tested in a cell-based assay, using natural host cells of HIV. […] Cytotoxicity was determined in parallel with the antiviral activity so that the selectivity of the antiviral effect could be assessed. […] After four days of incubation at 37° C., the viability of the HIV and mock-infected cells was assessed by an automated tetrazolium-based calorimetric assay. […]
pIC50: −log10 of the molar value.
parameterMeasured: pIC50

[
  {
    "smilesString": "Cc1cc(/C=C/C#N)cc(C)c1Nc1ccnc(Nc2ccc(C#N)cc2)n1",
    "numericResult": 9.10
  }
]

---

# protocolDetails: Phase I single oral dose trials: safety, tolerability, pharmacokinetics
# Format: in vivo, human
# assayConditions: male, human, plasma; single oral dose 25 mg; read-out: T1/2 (converted)

[
  {
    "compound": "Cc1cc(/C=C/C#N)cc(C)c1Nc1ccnc(Nc2ccc(C#N)cc2)n1 [E-TMC278]",
    "half-life, h": 38.7
  }
]

---

# protocolDetails: Phase I single oral dose trials: safety, tolerability, pharmacokinetics
# Format: in vivo, human
# assayConditions: male, human, plasma; single oral dose 100 mg

[
  {
    "smilesString": "Cc1cc(/C=C/C#N)cc(C)c1Nc1ccnc(Nc2ccc(C#N)cc2)n1",
    "Tmax / h": 4.3
  }
]

---

# protocolDetails: Phase I single oral dose trials: safety, tolerability, pharmacokinetics
# Type: in vivo, human
# assayConditions: male, human, plasma; single oral dose 50 mg

[
  {
    "compound": "Cc1cc(/C=C/C#N)cc(C)c1Nc1ccnc(Nc2ccc(C#N)cc2)n1 [E-TMC278]",
    "Tmax (h)": 4
  }
]

---

# protocolDetails: Phase I single oral dose trials: safety, tolerability, pharmacokinetics
# Format: in vivo, human
# assayConditions: human, plasma; single oral dose 100 mg, healthy male subjects

[
  {
    "smilesString": "Cc1cc(/C=C/C#N)cc(C)c1Nc1ccnc(Nc2ccc(C#N)cc2)n1",
    "Cmax, ng/mL": 482
  }
]

---

# protocolDetails: Phase I single oral dose trials: safety, tolerability, pharmacokinetics
# Format: in vivo, human
# assayConditions: human, plasma; single oral dose 50 mg in PEG 400 with standard meal, healthy male volunteers

[
  {
    "smilesString": "Cc1cc(/C=C/C#N)cc(C)c1Nc1ccnc(Nc2ccc(C#N)cc2)n1",
    "readoutUnits": "µg/mL",
    "Cmax": 0.267
  }
]

---

# protocolDetails: Phase I single oral dose trials: safety, tolerability, pharmacokinetics
# Format: in vivo, human
# assayConditions: human, plasma; single oral dose 200 mg, healthy male subjects

[
  {
    "smilesString": "Cc1cc(/C=C/C#N)cc(C)c1Nc1ccnc(Nc2ccc(C#N)cc2)n1",
    "Cmax / ng/mL": 807
  }
]

---

Entries and their IC50
# System: HIV-1 double mutant 100I + 103N
# protocolDetails: MT-4 cell-based antiviral assay, SDM mutant
# assayConditions: Human immunodeficiency virus 1, MT4, 96 h, 100I + 103N, MT-4 cells

[
  {
    "smilesString": "Cc1ccnc2c1NC(=O)c1cccnc1N2C1CC1",
    "readoutUnits": "µM",
    "IC50": 10
  },
  {
    "smilesString": "O=C1Nc2ccc(Cl)cc2[C@@](C#CC2CC2)(C(F)(F)F)O1",
    "readoutUnits": "µM",
    "IC50": 10
  }
]

---

# System: HIV-1 wild type
# protocolDetails: MT-4 cell-based antiviral assay (viral cytopathicity, tetrazolium)
# assayConditions: Human immunodeficiency virus 1, MT4; Table 1, HIV RT mutation: Wild-type; read-out: IC50 value

[
  {
    "smilesString": "Cc1cc(/C=C\\C#N)cc(C)c1Nc1ccnc(Nc2ccc(C#N)cc2)n1",
    "systemName": "HIV-1 wild type",
    "IC50 / nM": 0.6
  }
]

---

# Test system: HIV-1 mutant 234I
# protocolDetails: MT-4 cell-based antiviral assay, SDM mutant
# assayConditions: Human immunodeficiency virus 1, MT4
# Procedure: Compound E-TMC278 was tested in a cell-based assay, using natural host cells of HIV. […] Cytotoxicity was determined in parallel with the antiviral activity so that the selectivity of the antiviral effect could be assessed. […] After four days of incubation at 37° C., the viability of the HIV and mock-infected cells was assessed by an automated tetrazolium-based calorimetric assay. […]
pIC50: −log10 of the molar value.

[
  {
    "smilesString": "Cc1ccnc2c1NC(=O)c1cccnc1N2C1CC1",
    "pIC50": 7.35
  },
  {
    "smilesString": "Cc1cc(/C=C/C#N)cc(C)c1Nc1ccnc(Nc2ccc(C#N)cc2)n1",
    "pIC50": 9.52
  }
]

---

# System: HIV-1 mutant 227C
# protocolDetails: MT-4 cell-based antiviral assay, SDM mutant
# assayConditions: Human immunodeficiency virus 1, MT4
pIC50: −log10 of the molar value.

[
  {
    "smilesString": "Cc1cc(/C=C/C#N)cc(C)c1Nc1ccnc(Nc2ccc(C#N)cc2)n1",
    "systemName": "HIV-1 mutant 227C",
    "pIC50": 8.70
  },
  {
    "smilesString": "Cc1ccnc2c1NC(=O)c1cccnc1N2C1CC1",
    "systemName": "HIV-1 mutant 227C",
    "pIC50": 5.74
  },
  {
    "smilesString": "O=C1Nc2ccc(Cl)cc2[C@@](C#CC2CC2)(C(F)(F)F)O1",
    "systemName": "HIV-1 mutant 227C",
    "pIC50": 7.44
  }
]

---

# protocolDetails: Phase I single oral dose trials: safety, tolerability, pharmacokinetics
# Format: in vivo, human
# assayConditions: male, human, plasma; single oral dose 50 mg; read-out: T1/2 (converted)
parameterMeasured: half-life (h)

[
  {
    "smilesString": "Cc1cc(/C=C/C#N)cc(C)c1Nc1ccnc(Nc2ccc(C#N)cc2)n1",
    "parameterMeasured": "half-life",
    "numericResult": 45
  }
]

---

# protocolDetails: Phase I single oral dose trials: safety, tolerability, pharmacokinetics
# Assay type: in vivo, human
# assayConditions: male, human, plasma; single oral dose 12.5 mg; read-out: T1/2 (converted)

[
  {
    "smilesString": "Cc1cc(/C=C/C#N)cc(C)c1Nc1ccnc(Nc2ccc(C#N)cc2)n1",
    "readoutUnits": "min",
    "half-life": 2230
  }
]

---

# protocolDetails: Phase I single oral dose trials: safety, tolerability, pharmacokinetics
# Format: in vivo, human
# assayConditions: male, human, plasma; single oral dose 12.5 mg

[
  {
    "smilesString": "Cc1cc(/C=C/C#N)cc(C)c1Nc1ccnc(Nc2ccc(C#N)cc2)n1",
    "readoutUnits": "h",
    "Tmax": 4
  }
]

---

# Test system: monotropic HIV strain Ba-L
# protocolDetails: MO-DC/CD4(+) T cell co-culture model of sexual HIV transmission
# Type: cell-based
# assayConditions: Human immunodeficiency virus 1, BAL, T-cell, 336 h, read-out: EC50 (concentration suppressing 50% of viral replication)

[
  {
    "molecule": "Cc1cc(/C=C/C#N)cc(C)c1Nc1ccnc(Nc2ccc(C#N)cc2)n1 [E-TMC278]",
    "systemName": "monotropic HIV strain Ba-L",
    "EC50 / nM": 0.55
  }
]
